The entries below are paired with their reported pIC50.
Test system: NB-4
Test: Antiproliferative activity against human NB4 cells after 48 hrs
Assay type: functional, cell-based
Settings: NB-4, 48 h
pIC50 (log units): -log10 of the concentration in mol/L.

# annotated cases, reported pIC50 shown
C[C@H]1N=C(c2ccccc2)c2cc(C#CCCCC(=O)NO)ccc2N(C)C1=O ... 5.32
CC1N=C(c2ccccc2)c2cc(C#CCCCC(=O)NO)ccc2N(C)C1=O (racemic) ... 5.90
C[C@H]1N=C(c2ccccc2)c2cc(NC(=O)CCCCCCC(=O)NO)ccc2N(C)C1=O ... 5.43
CN1C(=O)CN=C(c2ccccc2)c2cc(C#CCCCC(=O)NO)ccc21 ... 6.21

State its pIC50 on NB-4: C[C@@H]1N=C(c2ccccc2)c2cc(C#CCCCC(=O)NO)ccc2N(C)C1=O
6.21
